- ASSAYED SYSTEM: Catechol O-methyltransferase (Homo sapiens) (UniProt P21964)
- Sequence (P21964 whole entry, looked up): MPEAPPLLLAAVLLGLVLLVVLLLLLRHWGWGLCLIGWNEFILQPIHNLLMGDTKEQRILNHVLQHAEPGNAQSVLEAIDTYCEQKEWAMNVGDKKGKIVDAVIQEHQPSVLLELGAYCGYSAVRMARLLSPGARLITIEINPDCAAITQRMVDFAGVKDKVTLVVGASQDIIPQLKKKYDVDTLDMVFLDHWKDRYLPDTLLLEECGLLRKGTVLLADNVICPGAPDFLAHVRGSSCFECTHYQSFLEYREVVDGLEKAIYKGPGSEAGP
- METHOD NOTES: Primary Screen for Target Class Profiling of Small Molecule Inhibitors of Methyltransferases; further: on the % scale 0 is the no-effect control and ±100 the full control effect
- CONDITION SUMMARY: purified enzyme, MTase-Glo SAH luminescence; at 40 µM, hits give low values
Hit rate of the full screen: of about 25,000 compounds, about 970 (3.9%) were called active. About 8% were inconclusive and are not listed. The list comes from a sample in which actives are over-represented; it also holds close analogues and randomly drawn compounds.
Please respond with reported activity change, negative = inhibition for every item in the list.
Just the number please, in %, no unit attached.

Which activity change, negative = inhibition value belongs to CC(C)NC(=O)c1ccccc1OCC1CCCN(Cc2cccnc2)C1 (stereo not given) ?
-0.392

Which activity change, negative = inhibition value belongs to CC(C)(C)c1ccc(C(=O)Nc2cc(Cl)c(Br)cc2C(=O)O)cc1 ?
-7.23

Which activity change, negative = inhibition value belongs to COc1cc2ncnc(Nc3cccc(Cl)c3F)c2cc1OC(=O)N1CCN(C)C[C@H]1C ?
-20.9

Which activity change, negative = inhibition value belongs to CC(C)Cn1c(=O)c2ccccc2n2c(=O)n(Cc3ccccc3Cl)nc12 ?
3.16

Which activity change, negative = inhibition value belongs to CCCc1sc(NC(=O)C[C@H]2NC(=O)c3ccccc3NC2=O)nc1C(=O)OC ?
-0.596

Which activity change, negative = inhibition value belongs to Cc1ccc(Cn2c(=O)c3ccc(C(=O)NC(C)C)cc3n3c(=O)n(Cc4cccc(F)c4)nc23)cc1 ?
6.38

Which activity change, negative = inhibition value belongs to CCOc1ccccc1CN1CCC(Cc2nc(-c3cccnc3)n[nH]2)C1 (stereo not given) ?
-5.67

Which activity change, negative = inhibition value belongs to COc1cccc(C(=O)N(CC(C)C)CC2CN(C(=O)Nc3ccccc3)CCO2)c1 (stereo not given) ?
-3.51

Which activity change, negative = inhibition value belongs to CN1C(=O)c2cc(C(=O)NCCc3cccs3)nn2CC1(C)C(=O)NCc1ccc(F)cc1 (stereo not given) ?
1.71

Which activity change, negative = inhibition value belongs to O=C(CCn1ccc2cc(S(=O)(=O)N3CCCC3)ccc21)NCc1cccc(Cl)c1 ?
-5.13

Where these numbers come from: PubChem BioAssay AID1745853
